# melting point binned as range 1 (below 40 °C), range 2 (40 °C to below 100 °C), range 3 (100 °C or more)

Answered examples (3):
>  <molecule>
C=Cc1ccc(-c2ccccc2)cc1

>  <category.label>
range 3

$$$$
>  <molecule>
CCCCOc1ccc(NC(=O)C(F)(F)C(F)(F)C(F)(F)C(F)(F)C(F)(F)C(F)(F)C(F)(F)C(F)(F)F)cc1

>  <category.label>
range 3

$$$$
>  <molecule>
Cc1ccc(C)cc1

>  <category.label>
range 1

$$$$

Lookup: Bin this entry: SCc1ccc(Cl)cc1
Found: range 1

Lookup: Bin this entry: CN(C)S(C)(=O)=O [N,N-dimethylmethanesulfonamide]
Found: range 2

Lookup: Bin this entry: O=[N+]([O-])c1ccc(C=NO)cc1
Found: range 3

Lookup: Bin this entry: ClC1=C(Cl)[C@]2(Cl)[C@@H]3[C@@H]4C[C@@H]([C@H]5O[C@@H]45)[C@@H]3[C@@]1(Cl)C2(Cl)Cl
Found: range 3

Lookup: Bin this entry: NC=O [formamide]
Found: range 1

Lookup: Bin this entry: CCOC(=O)CCCCC(=O)OCC [diethyl_adipate]
Found: range 1

Lookup: Bin this entry: Cc1ccc(cc1NC(=O)/C=CC(=O)O)Cl
Found: range 3

Lookup: Bin this entry: O=C(O)Cc1cccc(Cl)c1
Found: range 2

Lookup: Bin this entry: OCc1ccc(Br)cc1
Found: range 2

# credit: the Bradley open melting point set (2014)
